The measured values listed here are drawn from patent US20150098939A1.

Recorded kon values for a group of binders are listed next.
# target_under_test: T1, human GPVI protein, soluble extracellular domain (D1 and D2) (human, UniProt Q9HCN6 21-267)
# T1 construct: extracellular domain; also called hGPVI; human glycoprotein VI
# T1 sequence (looked up): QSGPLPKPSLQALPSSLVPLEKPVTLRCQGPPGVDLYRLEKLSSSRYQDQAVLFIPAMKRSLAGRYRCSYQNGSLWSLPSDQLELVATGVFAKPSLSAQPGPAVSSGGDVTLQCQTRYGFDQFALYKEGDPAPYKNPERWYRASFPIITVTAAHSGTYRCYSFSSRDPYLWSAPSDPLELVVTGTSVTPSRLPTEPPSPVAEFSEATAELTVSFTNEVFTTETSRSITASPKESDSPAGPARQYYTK
# assay_summary: SPR (Biacore 3000), human GPVI immobilised, Fab analyte
measured_property: kon (M⁻¹ s⁻¹)

[[record]]
binder = "humanized anti-GPVI Fab VL3/VH4 (Fab, V domains shown, Recombinant Fab: VH fused to CH1 of human IGHG1 (Q569F4), HC ends in DKTHT; also called VL3 with VH4) VH: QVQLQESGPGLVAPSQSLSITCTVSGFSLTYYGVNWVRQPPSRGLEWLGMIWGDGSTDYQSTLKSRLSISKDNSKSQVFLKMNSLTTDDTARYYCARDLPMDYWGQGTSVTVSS VL: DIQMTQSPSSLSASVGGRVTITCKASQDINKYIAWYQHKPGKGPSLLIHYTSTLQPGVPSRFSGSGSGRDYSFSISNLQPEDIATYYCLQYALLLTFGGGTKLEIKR"
value_observed = 151000

[[record]]
binder = "humanized anti-GPVI Fab VL3/VH2 (Fab, V domains shown, Recombinant Fab: VH fused to CH1 of human IGHG1 (Q569F4), HC ends in DKTHT; VL fused to human constant kappa (Q502W4); also called VL3 with VH2) VH: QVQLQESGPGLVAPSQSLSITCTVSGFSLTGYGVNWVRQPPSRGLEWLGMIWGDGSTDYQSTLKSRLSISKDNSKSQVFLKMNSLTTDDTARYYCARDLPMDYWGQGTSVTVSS VL: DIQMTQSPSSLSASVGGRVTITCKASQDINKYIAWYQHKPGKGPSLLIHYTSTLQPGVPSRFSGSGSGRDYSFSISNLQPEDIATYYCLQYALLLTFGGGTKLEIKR"
value_observed = 132000

[[record]]
binder = "humanized anti-GPVI Fab VL1/VH4 (Fab, V domains shown, Recombinant Fab: VH fused to CH1 of human IGHG1 (Q569F4), HC ends in DKTHT; VL fused to human constant kappa (Q502W4); also called VL1 with VH4) VH: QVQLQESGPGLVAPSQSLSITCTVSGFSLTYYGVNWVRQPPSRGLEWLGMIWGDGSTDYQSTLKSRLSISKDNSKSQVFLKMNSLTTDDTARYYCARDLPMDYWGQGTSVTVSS VL: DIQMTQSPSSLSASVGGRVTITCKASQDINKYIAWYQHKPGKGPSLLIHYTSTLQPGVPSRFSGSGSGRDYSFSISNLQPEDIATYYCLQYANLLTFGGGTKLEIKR"
value_observed = 124000

